Test system: HEK-293T
Assay: Incucyte cell viability with HEK293T; also: unitless GR value; below 1 slowed growth and below 0 cell loss
Type: toxicity, cell-based
Conditions: human, 6 h, 10 µM, compound concentration 10 uM, replicate number 1
Criterion: Growth Rate meeting or surpassing 0.4. Met: criterion met. Not met: criterion not met.

Textbook exercise: given the entry CC[C@@H]1C(=O)N(C)c2cnc(Nc3ccc(C(=O)NC4CCN(C)CC4)cc3OC)nc2N1C1CCCC1 , state whether its Growth Rate is greater than or equal to 0.4. criterion met

Textbook exercise: given the entry Cc1cn([C@H](C)CC#N)c(=O)c2cc(Cn3nc(C(F)F)cc3Cl)nn12 , state whether its Growth Rate is greater than or equal to 0.4. criterion met

Textbook exercise: given the entry CC1(C)CCC[C@]2(C)[C@@H](C=O)C(C=O)=CC[C@@H]12 , state whether its Growth Rate is greater than or equal to 0.4. criterion not met

Textbook exercise: given the entry CC(=O)c1c(C)c2cnc(Nc3ccn(C)n3)nc2n(C2CCCC2)c1=O , state whether its Growth Rate is greater than or equal to 0.4. criterion met

Textbook exercise: given the entry CN1CCN(C(=O)Cc2ccc(N/C(=C3\C(=O)Nc4cc(Cl)ccc43)c3ccccc3)cc2)CC1 , state whether its Growth Rate is greater than or equal to 0.4. criterion not met

Textbook exercise: given the entry N[C@@H](CC(=O)O)Cn1nnc(-c2ccc(Oc3ncc(Cl)cc3F)cc2)n1 , state whether its Growth Rate is greater than or equal to 0.4. criterion met

Textbook exercise: given the entry Cc1ccc(S(=O)(=O)Nc2ccc(-n3nc(C(F)(F)F)cc3C(F)(F)F)cc2)cc1 , state whether its Growth Rate is greater than or equal to 0.4. criterion not met

Textbook exercise: given the entry Oc1c(-c2cccnc2)cnn1-c1ccccn1 , state whether its Growth Rate is greater than or equal to 0.4. criterion met

Textbook exercise: given the entry S=c1[nH]nc(-c2cccs2)n1-c1ccccc1 , state whether its Growth Rate is greater than or equal to 0.4. criterion met

Textbook exercise: given the entry CC(C)(C)c1ccc(NC(=O)N2CCN(c3ncccc3Cl)CC2)cc1 , state whether its Growth Rate is greater than or equal to 0.4. criterion not met

Textbook exercise: given the entry CC(C)(C)S(=O)(=O)c1ccc2nccc(Nc3n[nH]c4ccc(F)cc34)c2c1 , state whether its Growth Rate is greater than or equal to 0.4. criterion not met

Textbook exercise: given the entry CN(CC(=O)Nc1ccc(F)c(F)c1F)C(=O)c1ccc2c(c1)OCCO2 , state whether its Growth Rate is greater than or equal to 0.4. criterion not met

Textbook exercise: given the entry O=C(O)CCCCN(CCc1ccccc1OCc1ccc(CCc2ccccc2)cc1)Cc1ccc(C(=O)O)cc1 , state whether its Growth Rate is greater than or equal to 0.4. criterion met

Textbook exercise: given the entry Cc1c(NC(=O)c2ccc(C(C)(C)C)cc2)cccc1-c1cn(C)c(=O)c(Nc2ccc(C(=O)N3CCOCC3)cc2)n1 , state whether its Growth Rate is greater than or equal to 0.4. criterion met

Textbook exercise: given the entry CC(CNS(=O)(=O)C(C)C)c1ccc(-c2ccc(C#N)cc2)cc1 (centres undefined) , state whether its Growth Rate is greater than or equal to 0.4. criterion not met

Textbook exercise: given the entry COc1cc(F)ccc1-c1cc(Nc2cc(CS(C)(=N)=O)ccn2)ncc1F (centres undefined) , state whether its Growth Rate is greater than or equal to 0.4. criterion not met

Textbook exercise: given the entry CCOC(=O)C1=C(C)NC(C)=C(C(=O)OC)C1c1cccc([N+](=O)[O-])c1 (centres undefined) , state whether its Growth Rate is greater than or equal to 0.4. criterion not met

Textbook exercise: given the entry CCOC(=O)/N=C(\N)c1ccc(OCc2cccc(COc3ccc(C(C)(C)c4ccc(OC(=O)OCC)cc4)cc3)c2)cc1 , state whether its Growth Rate is greater than or equal to 0.4. criterion not met

Textbook exercise: given the entry CN(C)[C@H]1CCc2nc(NC(=O)c3cccc(Cn4cc(-c5ccc(C#N)cc5)cn4)c3)sc2C1.O=C(O)C(F)(F)F , state whether its Growth Rate is greater than or equal to 0.4. criterion met

---

Kindly state Growth Rate for each of the entries shown.
System: HEK-293T
Assay: Incucyte cell viability with HEK293T; also: unitless GR value; below 1 slowed growth and below 0 cell loss
Format: toxicity, cell-based
Details: human, 0 h, 10 µM, compound concentration 10 uM, replicate number 1

Entry COc1ccc(F)c(F)c1C(=O)c1cnc(NC2CCN(S(C)(=O)=O)CC2)nc1N needs its Growth Rate filled in; supply it. -1

Entry Cc1ccc(-n2nc(C(C)(C)C)cc2NC(=O)Nc2ccc(OCCN3CCOCC3)c3ccccc23)cc1 needs its Growth Rate filled in; supply it. -0.47

Entry O=S1(=O)NCN(C2CC2)c2ccc(F)cc21 needs its Growth Rate filled in; supply it. 0.98

Entry FC(F)(F)Oc1ccc(-c2ccc3nnc(C(F)(F)F)n3c2)cc1 needs its Growth Rate filled in; supply it. 0.83

Entry O=C(/N=c1\sccn1Cc1ccccc1)c1c[nH]c2ncccc12 needs its Growth Rate filled in; supply it. -0.78

Entry NC(=O)c1ccc(-c2nc(-c3ccc4c(c3)OCO4)c(-c3ccccn3)[nH]2)cc1.O needs its Growth Rate filled in; supply it. 0.76

Entry O=C1NCCSc2c1sc1ccc(O)cc21 needs its Growth Rate filled in; supply it. 0.04

Entry CS(=O)(=O)NC(=O)CCC/C=C\C[C@H]1C(=O)C[C@@H](O)[C@@H]1/C=C/[C@@H](O)COc1ccccc1 needs its Growth Rate filled in; supply it. 0.99

Entry C[C@H](CCC(=O)O)[C@H]1CC[C@H]2[C@@H]3[C@H](O)C[C@@H]4C[C@H](O)CC[C@]4(C)[C@H]3C[C@H](O)[C@]12C needs its Growth Rate filled in; supply it. 0.14

---

System: HEK-293T
Experiment: Incucyte cell viability with HEK293T; also: unitless GR value; below 1 slowed growth and below 0 cell loss
Assay type: toxicity, cell-based
Details: human, 12 h, 10 µM, compound concentration 10 uM, replicate number 1
Attribute Measured: Growth Rate
Keep the answer to the number alone.

Entry CC(C)(C)c1cc(C(C)(C)C)c(NC(=O)c2c[nH]c3ccccc3c2=O)cc1O needs its Growth Rate filled in; supply it. 0.71

Entry COc1cc(-c2nn([C@H]3CC[C@H](N4CCN(C(C)=O)CC4)CC3)c3ncnc(N)c23)ccc1NC(=O)c1cc2ccccc2n1C needs its Growth Rate filled in; supply it. -0.39

Entry COc1ccc2c(O[C@@H]3C[C@H]4C(=O)N[C@]5(C(=O)NS(=O)(=O)C6(C)CC6)CC5/C=C\CCCCC[C@H](NC(=O)c5ccn(C)n5)C(=O)N4C3)cc(OC(C)C)nc2c1C (stereo partly drawn) needs its Growth Rate filled in; supply it. 0.8

Entry Cc1nc(Nc2cnn(C3CCNCC3)c2)nc2c1N(C)C(=O)c1cc3ccccc3cc1N2C needs its Growth Rate filled in; supply it. 0.41

Entry CC(C)(C)c1cc(NC(=O)c2csc(Nc3ccccn3)n2)no1 needs its Growth Rate filled in; supply it. 0.04

Entry C[S+]([O-])c1ccc(-c2nc(-c3cccc(I)c3)c(-c3ccncc3)[nH]2)cc1 (stereo not drawn) needs its Growth Rate filled in; supply it. 0.87

Entry COc1ccc(-c2cc3c(C)nc(N)nc3n([C@H]3CC[C@H](OCCO)CC3)c2=O)cn1 needs its Growth Rate filled in; supply it. -0.29

Entry CN1C(=O)Cc2ccc(-c3ccc(C[C@@H](C#N)NC(=O)[C@H]4N[C@@H]5CC[C@H]4C5)c(F)c3)cc21 needs its Growth Rate filled in; supply it. 0.89

---

Test system: HEK-293T
Test: Incucyte cell viability with HEK293T; also: unitless GR value; below 1 slowed growth and below 0 cell loss
Type: toxicity, cell-based
Settings: human, 0 h, 10 µM, compound concentration 10 uM, replicate number 1
Criterion: Growth Rate meeting or surpassing 0.2. Met: true (1). Not met: false (0).

Textbook exercise: given the entry C[C@@H](CO)CCC[C@@H](C)[C@H]1CC[C@H]2[C@@H]3CC=C4C[C@@H](O)CC[C@]4(C)[C@H]3CC[C@]12C , state whether its Growth Rate is greater than or equal to 0.2. true (1)

Textbook exercise: given the entry C[C@@H](CN1CC[C@@]2(C)c3cccc(O)c3C[C@@H]1C2(C)C)OCc1ccccc1.Cl , state whether its Growth Rate is greater than or equal to 0.2. true (1)

Textbook exercise: given the entry COc1c(NC(=O)c2cc3cccc(Oc4ccnc(C(=O)N5CCN(C)CC5)c4)c3n2C)cc(C(C)(C)C)cc1NS(C)(=O)=O , state whether its Growth Rate is greater than or equal to 0.2. true (1)

Textbook exercise: given the entry NC1=NC(=O)/C(=C2\CCNC(=O)c3[nH]c4ccccc4c32)N1 , state whether its Growth Rate is greater than or equal to 0.2. true (1)

Textbook exercise: given the entry CCN1CCN(Cc2ccc(NC(=O)Nc3ccc(Oc4cc(NC)ncn4)cc3)cc2C(F)(F)F)CC1 , state whether its Growth Rate is greater than or equal to 0.2. false (0)

Textbook exercise: given the entry O=C(O)C[C@H]1CC[C@H](c2ccc(NC(=O)c3nnc(Nc4ccc(F)c(F)c4)o3)cc2)CC1 , state whether its Growth Rate is greater than or equal to 0.2. true (1)

Textbook exercise: given the entry Cc1cccc(-c2[nH]c(CNc3ccccc3F)nc2-c2ccc3ncnn3c2)n1 , state whether its Growth Rate is greater than or equal to 0.2. true (1)

Textbook exercise: given the entry CC(=O)c1c(C)c2cnc(Nc3ccc(N4CCN(CCOCCOCCOCCNC(=O)COc5cccc6c5C(=O)N(C5CCC(=O)NC5=O)C6=O)CC4)cn3)nc2n(C2CCCC2)c1=O (configuration not stated) , state whether its Growth Rate is greater than or equal to 0.2. true (1)

Textbook exercise: given the entry O=C(O)c1ccc(OCCCc2ccc(OCCCCOC3CCCCC3)cc2)c(C(=O)NC2CCCC(C(=O)O)C2)c1 (configuration not stated) , state whether its Growth Rate is greater than or equal to 0.2. false (0)

Textbook exercise: given the entry CCn1c(-c2nonc2N)nc2c(C#CC(C)(C)O)ncc(OCC3CCCNC3)c21 (configuration not stated) , state whether its Growth Rate is greater than or equal to 0.2. false (0)

Textbook exercise: given the entry Cc1ccccc1Oc1cc(-n2c(=O)cc(C(F)(F)F)[nH]c2=O)c2ccccc2c1Cl , state whether its Growth Rate is greater than or equal to 0.2. true (1)

Textbook exercise: given the entry O=C(NCCN1CCOCC1)c1ccc2nn(CCOc3ccc(Cl)cc3)cc2c1 , state whether its Growth Rate is greater than or equal to 0.2. true (1)

Textbook exercise: given the entry N[C@H](C(=O)O)[C@@H]1CC(Cl)=NO1 , state whether its Growth Rate is greater than or equal to 0.2. false (0)

Textbook exercise: given the entry CCOc1cc(CC(=O)N[C@@H](CC(C)C)c2ccccc2N2CCCCC2)ccc1C(=O)O [REPAGLINIDE] , state whether its Growth Rate is greater than or equal to 0.2. true (1)

Textbook exercise: given the entry CCn1c(-c2nonc2N)nc2cncc(C(=O)N3CC[C@H](N)C3)c21.Cl , state whether its Growth Rate is greater than or equal to 0.2. false (0)

Textbook exercise: given the entry O=C1NC(Nc2ccccc2)=N/C1=C\c1ccc2c(c1)OCO2 , state whether its Growth Rate is greater than or equal to 0.2. true (1)

Textbook exercise: given the entry COc1ccccc1Nc1nc(-c2nn(Cc3c(F)cc(OCCCO)cc3F)c3ccccc23)ncc1OC , state whether its Growth Rate is greater than or equal to 0.2. false (0)

Textbook exercise: given the entry CC[C@H](CC(=O)O)n1c(=O)c2ncccc2n(Cc2cn(C)c3cc(C)cc(C)c23)c1=O , state whether its Growth Rate is greater than or equal to 0.2. true (1)

Textbook exercise: given the entry CNc1nc(-c2ccc3c(N)n[nH]c3c2)cc(N2C[C@@H](C(=O)NC3CCCCC3)CC[C@H]2C)n1 , state whether its Growth Rate is greater than or equal to 0.2. false (0)

Textbook exercise: given the entry CC(C)(O)c1cn(-c2ccc(-c3cccc(S(C)(=O)=O)c3)cc2)c(C(C)(C)c2ccccc2Cl)n1 , state whether its Growth Rate is greater than or equal to 0.2. false (0)

Textbook exercise: given the entry O=C(O)c1ccc2c(c1)nc(NCc1ccccc1)c1ncncc12 , state whether its Growth Rate is greater than or equal to 0.2. false (0)
